experiment: Pharmacokinetic study in plasma of acute depressive rats after oral ZQ extract (LC-MS/MS); type: in vivo, Sprague–Dawley rats; conditions: Sprague-Dawley, rat; AUC0-∞; plasma, male SD rats subjected to FST, oral ZQ extract 20 g/kg, mean ± SD, n = 6
Each entry below carries its recorded AUC.
Only the number, expressed in ng·h/mL, is required.

Example results:
- COMPOUND: "COc1ccc(-c2cc(=O)c3c(OC)c(OC)c(OC)c(OC)c3o2)cc1OC [Nobiletin, nobiletin]"
  READOUT_VALUE: 153
- COMPOUND: "C[C@@H]1O[C@@H](O[C@H]2[C@H](Oc3cc(O)c4c(c3)O[C@H](c3ccc(O)cc3)CC4=O)O[C@H](CO)[C@@H](O)[C@@H]2O)[C@H](O)[C@H](O)[C@H]1O [Naringin, naringin]"
  READOUT_VALUE: 312
- COMPOUND: "O=C1C[C@@H](c2ccc(O)cc2)Oc2cc(O)cc(O)c21 [Naringenin, naringenin]"
  READOUT_VALUE: 226

Recorded AUC for COc1ccc2ccc(=O)oc2c1CC(O)C(C)(C)O (stereo not shown) [Meranzin hydrate] , please?
1710

Now consider C[C@@H]1O[C@@H](OC[C@H]2O[C@@H](Oc3cc(O)c4c(c3)O[C@H](c3ccc(O)cc3)CC4=O)[C@H](O)[C@@H](O)[C@@H]2O)[C@H](O)[C@H](O)[C@H]1O [Narirutin, narirutin] and answer again.
44.9

Ok, now COc1ccc([C@@H]2CC(=O)c3c(O)cc(O[C@@H]4O[C@H](CO)[C@@H](O)[C@H](O)[C@H]4O[C@@H]4O[C@@H](C)[C@H](O)[C@@H](O)[C@H]4O)cc3O2)cc1O [Neohesperidin, neohesperidin]
239

Same again, this time with COc1ccc([C@@H]2CC(=O)c3c(O)cc(O[C@@H]4O[C@H](CO[C@@H]5O[C@@H](C)[C@H](O)[C@@H](O)[C@H]5O)[C@@H](O)[C@H](O)[C@H]4O)cc3O2)cc1O [Hesperidin, hesperidin]
179

---

experiment: Stability of the analytes in rat plasma (QC samples); assay type: in vitro ADME; details: low QC level, deviation from nominal conc
READOUT_LABEL: RE, Three freeze-thaw cycles (%)
// units = %; emit number, no label

- COMPOUND: "COc1ccc2ccc(=O)oc2c1CC(O)C(C)(C)O (stereo not shown) [Meranzin hydrate]"
  UNITS_LABEL: "%"
  READOUT_VALUE: 11.95
- COMPOUND: "C[C@@H]1O[C@@H](OC[C@H]2O[C@@H](Oc3cc(O)c4c(c3)O[C@H](c3ccc(O)cc3)CC4=O)[C@H](O)[C@@H](O)[C@@H]2O)[C@H](O)[C@H](O)[C@H]1O"
  UNITS_LABEL: "%"
  READOUT_VALUE: 9.69
- COMPOUND: "O=C1C[C@@H](c2ccc(O)cc2)Oc2cc(O)cc(O)c21"
  UNITS_LABEL: "%"
  READOUT_VALUE: -8.95
- COMPOUND: "COc1ccc([C@@H]2CC(=O)c3c(O)cc(O[C@@H]4O[C@H](CO[C@@H]5O[C@@H](C)[C@H](O)[C@@H](O)[C@H]5O)[C@@H](O)[C@H](O)[C@H]4O)cc3O2)cc1O"
  UNITS_LABEL: "%"
  READOUT_VALUE: 4.08
- COMPOUND: "COc1ccc([C@@H]2CC(=O)c3c(O)cc(O[C@@H]4O[C@H](CO)[C@@H](O)[C@H](O)[C@H]4O[C@@H]4O[C@@H](C)[C@H](O)[C@@H](O)[C@H]4O)cc3O2)cc1O"
  UNITS_LABEL: "%"
  READOUT_VALUE: 7.23

Which RE, Three freeze-thaw cycles is reported for this compound? "C[C@@H]1O[C@@H](O[C@H]2[C@H](Oc3cc(O)c4c(c3)O[C@H](c3ccc(O)cc3)CC4=O)O[C@H](CO)[C@@H](O)[C@@H]2O)[C@H](O)[C@H](O)[C@H]1O"
9.33

Same again, this time with "COc1ccc(-c2cc(=O)c3c(OC)c(OC)c(OC)c(OC)c3o2)cc1OC"
-7.88

---

test: Stability of the analytes in rat plasma (QC samples); assay type: in vitro ADME; settings: low QC level, deviation from nominal conc
If the reported RE, Room temperature for 12 h equals or exceeds 10%, assign class 1. If not, assign class 0.

Completed entries (count: 4):
- COMPOUND: "COc1ccc2ccc(=O)oc2c1CC(O)C(C)(C)O (centres unmarked) [Meranzin hydrate]"
  ASSIGNED_CLASS: "class 1"
- COMPOUND: "O=C1C[C@@H](c2ccc(O)cc2)Oc2cc(O)cc(O)c21 [Naringenin, naringenin]"
  ASSIGNED_CLASS: "class 0"
- COMPOUND: "C[C@@H]1O[C@@H](O[C@H]2[C@H](Oc3cc(O)c4c(c3)O[C@H](c3ccc(O)cc3)CC4=O)O[C@H](CO)[C@@H](O)[C@@H]2O)[C@H](O)[C@H](O)[C@H]1O [Naringin, naringin]"
  ASSIGNED_CLASS: "class 0"
- COMPOUND: "C[C@@H]1O[C@@H](OC[C@H]2O[C@@H](Oc3cc(O)c4c(c3)O[C@H](c3ccc(O)cc3)CC4=O)[C@H](O)[C@@H](O)[C@@H]2O)[C@H](O)[C@H](O)[C@H]1O [Narirutin, narirutin]"
  ASSIGNED_CLASS: "class 1"

Continue with the next compound.
API: above_or_equal(metric=RE, Room temperature for 12 h, cutoff=10%) for item COc1ccc(-c2cc(=O)c3c(OC)c(OC)c(OC)c(OC)c3o2)cc1OC [Nobiletin, nobiletin]
class 0
